- assay_name: Half life in human liver S9 fractions at 1 uM measured pretreated up to 45 mins followed by NADPH addition by LC/MS/MS analysis
- Format: ADME, tissue-based
- measurement_parameters: liver S9 fraction
measurement_type: half-life at 1 µM (min)
I only need the number, in min, no unit after it.

Given the entry Cc1cc(/C=C/C#N)cc(C)c1Oc1cc(Nc2ccc(C#N)cc2)c(N)cc1C(=O)N1CC(F)(F)C1 , report its measured half-life at 1 µM. 14

====

- assay_name: Inhibition of wild type HIV1 NL4-3 reverse transcriptase infected in human TZM-b1 cells after 2 days by bright Glo-luciferase reporter gene assay
- Type: cell-based
- measurement_parameters: Human immunodeficiency virus 1, NL4-3, TZM-b1, 48 h
Listed here: items and their measured pEC50.
In plain terms, pEC50 is the concentration in mol/L turned into minus its base-10 logarithm.

Before answering, review these 7 worked examples.
> print(dat)
                                smiles.code  recorded.result
1  Cc1cc(/C=C/C#N)cc(C)c1Oc1cc(Nc2ccc(C#N)cc2)c(N)cc1C(=O)OCCC#N             8.95
2  COCCOC(=O)c1cc(N)c(Nc2ccc(C#N)cc2)cc1Oc1c(C)cc(/C=C/C#N)cc1C             8.82
3  Cc1cc(/C=C/C#N)cc(C)c1Nc1ccnc(Nc2ccc(C#N)cc2)n1             9.36
4  Cc1cc(/C=C/C#N)cc(C)c1Oc1cc(Nc2ccc(C#N)cc2)c(N)cc1C(=O)NCCCO             7.60
5  Cc1cc(/C=C/C#N)cc(C)c1Oc1cc(Nc2ccc(C#N)cc2)c(N)cc1C(=O)NCCCl             8.48
6  Cc1cc(/C=C/C#N)cc(C)c1Oc1cc(Nc2ccc(C#N)cc2)c(N)cc1C(=O)N1CC1             8.48
7  Cc1cc(/C=C/C#N)cc(C)c1Oc1cc(Nc2ccc(C#N)cc2)c(N)cc1C(=O)N1CC(F)(F)C1             7.87

Now examine the next entry.
Could you share which pEC50 value was measured for Cc1cc(/C=C/C#N)cc(C)c1Oc1cc(Nc2ccc(C#N)cc2)c(N)cc1C(=O)NN ? 7.94
